- Target entity: T1, human ferroportin (SLC40A1) fused in frame with GFP, stably expressed in HEK293 cells (human, UniProt Q9NP59 1-571)
- T1 sequence (looked up): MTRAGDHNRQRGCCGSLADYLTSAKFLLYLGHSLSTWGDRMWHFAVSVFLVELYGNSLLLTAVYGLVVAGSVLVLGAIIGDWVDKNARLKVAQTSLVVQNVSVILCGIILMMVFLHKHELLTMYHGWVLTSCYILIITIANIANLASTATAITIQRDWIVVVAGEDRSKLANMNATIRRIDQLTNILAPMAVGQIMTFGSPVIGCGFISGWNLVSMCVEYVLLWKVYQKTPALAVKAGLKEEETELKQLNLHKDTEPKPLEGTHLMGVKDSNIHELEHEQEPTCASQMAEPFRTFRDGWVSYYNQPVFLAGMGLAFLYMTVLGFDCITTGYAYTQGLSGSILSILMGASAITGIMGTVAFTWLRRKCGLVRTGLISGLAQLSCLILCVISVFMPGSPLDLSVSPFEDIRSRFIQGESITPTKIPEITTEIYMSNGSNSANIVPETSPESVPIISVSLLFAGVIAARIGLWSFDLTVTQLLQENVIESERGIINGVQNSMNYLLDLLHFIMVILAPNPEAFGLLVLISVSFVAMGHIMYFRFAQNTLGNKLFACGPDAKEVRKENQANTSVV
- Method: cell-based or functional assay
Primed or numbered codes have the meaning given here. * marks the point of attachment. Isovaleryl = CC(C)CC(=O)*; PEG4′ = not defined here
Measured quantity: Potency EC50 (nM)

binder="Isovaleryl-DTHFPICIFGPRSK(PEG4′)GWVC-NH2 (not fully specified (bridges); cysteine pairing not given here) [Compound 177]" endpoint_result=6
binder="H-DTHFPICIFAPRSKGWVCM-NH2 (cysteine pairing not given here) [Compound 22]" endpoint_result=9430
binder="H-DTHFPICIFGPHRSKGWVCM-NH2 (cysteine pairing not given here) [Compound 27]" endpoint_result=149
